conditions: human, serum
Listed next: entries and their corresponding Hepatotoxicity (moderate).
Reply with just the number.

COMPOUND	Hepatotoxicity (moderate)
CCC(C)C(C)(COC(N)=O)COC(N)=O (centres undefined) [MEBUTAMATE]	0
N[C@@H]1C[C@H]1c1ccccc1.N[C@H]1C[C@@H]1c1ccccc1 [TRANYLCYPROMINE]	0
CO[C@@H]1[C@H](OC(=O)/C=C/C=C/C=C/C=C/C(=O)O)CC[C@]2(CO2)[C@H]1[C@@]1(C)O[C@@H]1CC=C(C)C [FUMAGILLIN]	2

Now take the following compound into account.
Entry C(=C\c1ccccc1)/CN1CCN(C(c2ccccc2)c2ccccc2)CC1 [CINNARIZINE] : reported Hepatotoxicity (moderate) = ?
0

----------
details: human, serum
Field: label. Allowed values: yes (Hepatotoxicity (moderate) < 3) or no (Hepatotoxicity (moderate) >= 3).

Sample answers from the record:
COMPOUND	CLASS
O=c1ccc2ccccc2o1	no
Cc1cc(Br)c(O)c2ncccc12	yes
CCc1cccc2c3c([nH]c12)C(CC)(CC(=O)O)OCC3 (stereo not drawn)	no
CCN(CC)CCCC(C)Nc1c2ccc(Cl)cc2nc2ccc(OC)cc12 (stereo not drawn)	yes
CN1CCC(=C2c3ccccc3CC(=O)c3sccc32)CC1	yes

For Cc1cc(=O)n(-c2ccccc2)n1C [ANTIPYRINE] , is the recorded Hepatotoxicity (moderate) below the cut-off of 3?
yes

For C[C@]12C=CC(=O)C=C1CC[C@@H]1[C@@H]2CC[C@@]2(C)[C@H]1CC[C@]2(C)O (stereo in doubt; form 1) , is the recorded Hepatotoxicity (moderate) below the cut-off of 3?
yes

For CCCCN(CCCC)CCC(O)c1cc2c(Cl)cc(Cl)cc2c2cc(C(F)(F)F)ccc12 (stereo not drawn) , is the recorded Hepatotoxicity (moderate) below the cut-off of 3?
no

For CC[C@H]1[C@@H]2C[C@H]3[C@@H]4N(C)c5ccccc5[C@]45C[C@@H]([C@@H]2[C@H]5O)N3[C@@H]1O , is the recorded Hepatotoxicity (moderate) below the cut-off of 3?
yes

For CS(=O)(=O)OCCCCOS(C)(=O)=O , is the recorded Hepatotoxicity (moderate) below the cut-off of 3?
no

----------
details: human, Liver
PROPERTY LABEL: Hepatotoxicity (severe hepatitis)

Consider the following illustrative entries.
COMPOUND	Hepatotoxicity (severe hepatitis)
CC(C)Cc1ccc(C(C)C(=O)O)cc1 (centres undefined) [IBUPROFEN]	6
Cc1cccc(Nc2ccccc2C(=O)O)c1C [MEFENAMIC ACID]	1
CCn1cc(C(=O)O)c(=O)c2cc(F)c(N3CCNCC3)cc21 [NORFLOXACIN]	0

Entry Cc1ccc(NC(=O)c2ccc(CN3CCN(C)CC3)cc2)cc1Nc1nccc(-c2cccnc2)n1 [IMATINIB] : reported Hepatotoxicity (severe hepatitis) = ?
1

Entry O=C(O)c1ccccc1O.O=C(O)c1ccccc1O.O=C(O)c1ccccc1O : reported Hepatotoxicity (severe hepatitis) = ?
1

Entry CC(C)n1c(/C=C/C(O)CC(O)CC(=O)O)c(-c2ccc(F)cc2)c2ccccc21 (centres undefined) [FLUVASTATIN] : reported Hepatotoxicity (severe hepatitis) = ?
0

Entry CC(C)(C)NC(=O)[C@@H]1C[C@@H]2CCCC[C@@H]2CN1C[C@@H](O)[C@H](Cc1ccccc1)NC(=O)[C@H](CC(N)=O)NC(=O)c1ccc2ccccc2n1 : reported Hepatotoxicity (severe hepatitis) = ?
0

Entry Nc1nc2c(ncn2COCCO)c(=O)[nH]1 [ACYCLOVIR] : reported Hepatotoxicity (severe hepatitis) = ?
0

Entry CNn1cc(C(=O)O)c(=O)c2cc(F)c(N3CCN(C)CC3)cc21 [AMIFLOXACIN] : reported Hepatotoxicity (severe hepatitis) = ?
0

Entry Nc1nc(-c2ccccc2)c(Br)c(=O)[nH]1 [BROPIRIMINE] : reported Hepatotoxicity (severe hepatitis) = ?
0

Data credit: ChEMBL document CHEMBL3137667
